Origin of the recorded values: ChEMBL document CHEMBL3351914

molecular target: Tyrosine-protein kinase BTK (Homo sapiens); test: Inhibition of BTK in human whole blood assessed as decrease in CD69 positive cells
Sequence (Q06187 whole entry): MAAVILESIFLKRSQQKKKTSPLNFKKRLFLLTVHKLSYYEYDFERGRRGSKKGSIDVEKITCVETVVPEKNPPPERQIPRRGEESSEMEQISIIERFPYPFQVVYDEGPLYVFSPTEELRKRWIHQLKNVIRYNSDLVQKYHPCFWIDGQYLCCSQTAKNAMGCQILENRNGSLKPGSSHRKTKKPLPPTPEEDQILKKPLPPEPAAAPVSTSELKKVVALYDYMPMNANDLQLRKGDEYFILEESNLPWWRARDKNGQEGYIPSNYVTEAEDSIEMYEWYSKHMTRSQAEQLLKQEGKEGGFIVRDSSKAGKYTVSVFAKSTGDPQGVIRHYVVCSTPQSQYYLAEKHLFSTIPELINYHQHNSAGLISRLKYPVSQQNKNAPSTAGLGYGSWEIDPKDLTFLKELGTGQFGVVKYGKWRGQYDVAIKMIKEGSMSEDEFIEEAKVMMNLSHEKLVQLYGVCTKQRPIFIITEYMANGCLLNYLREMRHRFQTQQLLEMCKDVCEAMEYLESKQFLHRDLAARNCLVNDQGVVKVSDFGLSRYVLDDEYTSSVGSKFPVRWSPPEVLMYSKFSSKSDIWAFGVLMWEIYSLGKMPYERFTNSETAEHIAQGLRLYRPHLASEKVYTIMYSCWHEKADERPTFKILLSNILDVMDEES
assay endpoint: IC50 (nM)
Answers are plain numbers, in nM.

Previously resolved entries follow.
| query smiles | assay endpoint | reported result |
| --- | --- | --- |
| CN1CCN(c2ccc(Nc3cc(-c4cccc(N5CCc6cc(C(C)(C)C#N)ccc6C5=O)c4CO)cn(C)c3=O)nc2)CC1 | IC50 | 60 |
| CCNC(=O)Nc1cc(-c2cccc(N3CCc4cc(N(C)C)ccc4C3=O)c2CO)cn(C)c1=O | IC50 | 1600 |

// each listed compound needs a value for IC50
1. CN(C)c1ccc2c(=O)n(-c3cccc(-c4cc(Nc5ccc(C(=O)N6CCOCC6)cn5)c(=O)n(C)c4)c3CO)ccc2c1
2. CNC(=O)Nc1cc(-c2ccc(F)c(N3CCc4cc(N(C)C)ccc4C3=O)c2CO)cn(C)c1=O
3. CN(C)c1ccc2c(c1)CCN(c1cc(F)cc(-c3cc(Nc4ccc(N5CCOCC5)cn4)c(=O)n(C)c3)c1CO)C2=O
4. CN(C)c1ccc2c(c1)CCN(c1cccc(-c3cc(Nc4ccc(N5CCOCC5)cn4)c(=O)n(C)c3)c1CO)C2=O

1. 280
2. 3700
3. 200
4. 190
